test system: Streptococcus sp.; assay: Antimicrobial activity against Streptococcus sp. 07706-1 after 20 hrs; type: functional
Quick reference: MIC of the listed items.
Entry rule: numbers only, all in µM.

>  <Compound>
O=c1[nH]c(=O)n([C@H]2C[C@H](O)[C@@H](CO)O2)cc1F [FLOXURIDINE]

>  <Outcome Measure>
MIC

>  <Observed Measurement>
0.316

$$$$
>  <Compound>
Nc1nc(Cl)nc2c1ncn2[C@H]1C[C@H](O)[C@@H](CO)O1 [CLADRIBINE]

>  <Outcome Measure>
MIC

>  <Observed Measurement>
100

$$$$

Query block: Return reported MIC; argument: Nc1ccn([C@@H]2O[C@H](CO)[C@@H](O)C2(F)F)c(=O)n1 [GEMCITABINE]
Result block: 0.0316

Data origin: ChEMBL document CHEMBL1155163
